Recorded values, source patent US7517885B2.

measurement target: α1a-AR (Homo sapiens)
Sequence (P35348 1-455 isoform P35348-4): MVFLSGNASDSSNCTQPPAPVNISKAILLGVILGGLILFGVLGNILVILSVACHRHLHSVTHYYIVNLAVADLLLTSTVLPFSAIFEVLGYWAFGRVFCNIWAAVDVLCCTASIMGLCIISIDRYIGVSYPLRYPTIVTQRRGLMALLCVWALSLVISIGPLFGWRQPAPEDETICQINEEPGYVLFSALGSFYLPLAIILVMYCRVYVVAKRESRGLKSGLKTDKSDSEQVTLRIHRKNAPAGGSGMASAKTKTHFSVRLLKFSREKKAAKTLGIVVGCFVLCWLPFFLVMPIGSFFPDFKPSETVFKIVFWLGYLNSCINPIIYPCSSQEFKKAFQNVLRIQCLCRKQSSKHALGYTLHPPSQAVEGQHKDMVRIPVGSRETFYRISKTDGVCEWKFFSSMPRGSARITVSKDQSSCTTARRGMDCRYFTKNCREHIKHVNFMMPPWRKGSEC
Could you mark each record 1.0 if its Ki falls strictly under 20 nM, and 0.0 if it equals or exceeds it?

Hello, I'm reviewing records and need to know if Ki of CC(C)Oc1ccccc1N1CCN([C@H]2CC[C@H](NC(=O)Nc3cc(F)ccc3F)CC2)CC1 [Cpd 25] is below 20 nM. Could you check?
1.0

Hello, I'm reviewing records and need to know if Ki of CC(C)Oc1ccccc1N1CCN(C2CCC(NC(=O)Nc3ccccc3OC(F)(F)F)CC2)CC1 (mixture of isomers) [Cpd 30] is below 20 nM. Could you check?
0.0

Hello, I'm reviewing records and need to know if Ki of CC(C)Oc1ccccc1N1CCN([C@H]2CC[C@@H](NC(=O)NCc3cccc(F)c3)CC2)CC1 [Cpd 5] is below 20 nM. Could you check?
0.0

Hello, I'm reviewing records and need to know if Ki of CC(C)Oc1ccccc1N1CCN([C@H]2CC[C@H](NC(=O)Nc3cccc(Cl)c3)CC2)CC1 [Cpd 12] is below 20 nM. Could you check?
1.0

Hello, I'm reviewing records and need to know if Ki of CC(C)Oc1ccccc1N1CCN([C@H]2CC[C@@H](NC(=O)Nc3c(Cl)cccc3Cl)CC2)CC1 [Cpd 13] is below 20 nM. Could you check?
0.0

Hello, I'm reviewing records and need to know if Ki of CC(C)Oc1ccccc1N1CCN([C@H]2CC[C@H](NC(=O)Nc3cc(F)cc(F)c3)CC2)CC1 [Cpd 29] is below 20 nM. Could you check?
1.0

Hello, I'm reviewing records and need to know if Ki of CC(C)Oc1ccccc1N1CCN([C@H]2CC[C@H](NC(=O)Nc3ccc(F)c(F)c3)CC2)CC1 [Cpd 8] is below 20 nM. Could you check?
1.0

Hello, I'm reviewing records and need to know if Ki of COc1ccccc1NC(=O)N[C@H]1CC[C@@H](N2CCN(c3ccccc3OC(C)C)CC2)CC1 [Cpd 1] is below 20 nM. Could you check?
0.0

Hello, I'm reviewing records and need to know if Ki of COc1ccc(NC(=O)N[C@H]2CC[C@H](N3CCN(c4ccccc4OC(C)C)CC3)CC2)c(C)c1 [Cpd 21] is below 20 nM. Could you check?
0.0
